- target entity: UniProt:P31650
- Sequence (P31650 whole entry): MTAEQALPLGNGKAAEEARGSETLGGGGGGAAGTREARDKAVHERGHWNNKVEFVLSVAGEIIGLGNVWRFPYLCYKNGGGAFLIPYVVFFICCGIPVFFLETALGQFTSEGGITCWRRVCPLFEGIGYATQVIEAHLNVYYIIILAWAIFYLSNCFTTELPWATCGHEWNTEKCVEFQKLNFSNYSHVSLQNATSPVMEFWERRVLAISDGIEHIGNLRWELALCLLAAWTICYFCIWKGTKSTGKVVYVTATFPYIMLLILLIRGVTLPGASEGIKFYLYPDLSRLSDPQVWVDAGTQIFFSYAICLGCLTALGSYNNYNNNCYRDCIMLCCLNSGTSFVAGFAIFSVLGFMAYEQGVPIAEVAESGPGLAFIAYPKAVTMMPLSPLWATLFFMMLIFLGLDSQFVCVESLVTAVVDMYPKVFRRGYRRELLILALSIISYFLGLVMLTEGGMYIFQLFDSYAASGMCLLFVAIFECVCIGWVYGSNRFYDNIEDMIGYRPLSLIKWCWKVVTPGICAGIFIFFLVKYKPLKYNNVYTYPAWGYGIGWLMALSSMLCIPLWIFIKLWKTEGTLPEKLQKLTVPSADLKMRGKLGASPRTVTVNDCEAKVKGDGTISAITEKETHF
- method description: Inhibition of mouse GAT4 expressed in HEK293 cells assessed as decrease in [3H]GABA uptake

{"columns": ["molecule", "IC50 / µM"],
 "data": [
  ["CN(CCC=C(c1ccccc1)c1ccccc1)C(CCN)C(=O)NCc1ccccc1Cl (stereo not given)", 9.12],
  ["Cc1ccc(CNC(=O)C(CCN)NCCC=C(c2ccccc2)c2ccccc2)cc1 (stereo not given)", 15.1],
  ["NCCC(C(=O)NCc1ccc(Cl)cc1)N1CCC(=C(c2ccccc2)c2ccccc2)CC1 (stereo not given)", 12],
  ["NCCC(NCCC=C(c1ccccc1)c1ccccc1)C(=O)NCc1ccc(Cl)cc1 (stereo not given)", 11.7],
  ["CN(CCCC(c1ccccc1)c1ccccc1)C(CCN)C(=O)NCc1ccc(F)cc1 (stereo not given)", 13.5],
  ["NCCC(C(=O)NCc1ccccc1)N1CCC(C(c2ccccc2)c2ccccc2)CC1 (stereo not given)", 20],
  ["Cc1ccc(CNC(=O)C(CCN)N(C)CCC=C(c2ccccc2)c2ccccc2)cc1 (stereo not given)", 9.77],
  ["NCCC(C(=O)NCc1ccc(Cl)cc1)N1CCC(C(c2ccccc2)c2ccccc2)CC1 (stereo not given)", 10.2],
  ["NCCC(C(=O)NCc1ccc(F)cc1)N1CCC(C(c2ccccc2)c2ccccc2)CC1 (stereo not given)", 8.51],
  ["NCCC(NCCC=C(c1ccccc1)c1ccccc1)C(=O)NCc1ccccc1Cl (stereo not given)", 10.2]
]}

====

- target entity: GABA transporter 2 (Mus musculus)
- Sequence (P31651 whole entry): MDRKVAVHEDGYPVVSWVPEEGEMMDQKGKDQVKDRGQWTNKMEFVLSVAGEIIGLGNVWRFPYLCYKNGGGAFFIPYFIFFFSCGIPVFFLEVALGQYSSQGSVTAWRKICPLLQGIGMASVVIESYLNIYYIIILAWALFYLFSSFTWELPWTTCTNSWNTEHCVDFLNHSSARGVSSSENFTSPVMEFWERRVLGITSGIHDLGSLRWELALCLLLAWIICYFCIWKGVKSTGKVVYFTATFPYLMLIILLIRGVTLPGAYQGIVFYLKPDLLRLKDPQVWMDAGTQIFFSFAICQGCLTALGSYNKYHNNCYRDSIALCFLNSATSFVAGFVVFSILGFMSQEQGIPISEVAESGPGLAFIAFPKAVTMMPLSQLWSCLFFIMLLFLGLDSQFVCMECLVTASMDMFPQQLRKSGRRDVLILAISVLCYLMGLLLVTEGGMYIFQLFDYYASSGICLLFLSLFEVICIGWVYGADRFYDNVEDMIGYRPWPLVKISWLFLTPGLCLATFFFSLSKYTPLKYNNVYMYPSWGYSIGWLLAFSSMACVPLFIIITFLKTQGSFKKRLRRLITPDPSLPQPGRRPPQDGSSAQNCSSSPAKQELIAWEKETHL
- method description: Inhibition of mouse GAT2 expressed in HEK293 cells assessed as decrease in [3H]GABA uptake
- Type: cell-based
pIC50: −log10 of the molar value.

{"columns": ["molecule", "target entity", "pIC50"],
 "data": [
  ["NCCC(C(=O)NCc1ccc(F)cc1)N1CCC(C(c2ccccc2)c2ccccc2)CC1 (stereo not given)", "GABA transporter 2 (Mus musculus)", 5.03],
  ["NCCC(C(=O)NCc1ccc(Cl)cc1)N1CCN(C(c2ccccc2)c2ccccc2)CC1 (stereo not given)", "GABA transporter 2 (Mus musculus)", 4.68],
  ["NCCC(NCCC=C(c1ccccc1)c1ccccc1)C(=O)NCc1ccccc1 (stereo not given)", "GABA transporter 2 (Mus musculus)", 5.10],
  ["CN(CCC=C(c1ccccc1)c1ccccc1)C(CCN)C(=O)NCc1ccccc1 (stereo not given)", "GABA transporter 2 (Mus musculus)", 4.92],
  ["CN(CCCC(c1ccccc1)c1ccccc1)C(CCN)C(=O)NCc1ccc(F)cc1 (stereo not given)", "GABA transporter 2 (Mus musculus)", 4.94],
  ["NCCC(C(=O)NCc1ccccc1)N1CCC(=C(c2ccccc2)c2ccccc2)CC1 (stereo not given)", "GABA transporter 2 (Mus musculus)", 4.81],
  ["Cc1ccc(CNC(=O)C(CCN)N2CCC(C(c3ccccc3)c3ccccc3)CC2)cc1 (stereo not given)", "GABA transporter 2 (Mus musculus)", 5.10],
  ["NCCC(C(=O)NCc1ccccc1Cl)N1CCC(=C(c2ccccc2)c2ccccc2)CC1 (stereo not given)", "GABA transporter 2 (Mus musculus)", 4.99],
  ["NCCC(NCCC=C(c1ccccc1)c1ccccc1)C(=O)NCc1ccc(Cl)cc1 (stereo not given)", "GABA transporter 2 (Mus musculus)", 5.02],
  ["NCCC(C(=O)NCc1ccc(Cl)cc1)N1CCC(=C(c2ccccc2)c2ccccc2)CC1 (stereo not given)", "GABA transporter 2 (Mus musculus)", 4.98],
  ["CN(CCC=C(c1ccccc1)c1ccccc1)C(CCN)C(=O)NCc1ccc(F)cc1 (stereo not given)", "GABA transporter 2 (Mus musculus)", 4.89],
  ["CN(CCCC(c1ccccc1)c1ccccc1)C(CCN)C(=O)NCc1ccc(Cl)cc1 (stereo not given)", "GABA transporter 2 (Mus musculus)", 4.76],
  ["NCCC(C(=O)NCc1ccc(Cl)cc1)N1CCC(C(c2ccccc2)c2ccccc2)CC1 (stereo not given)", "GABA transporter 2 (Mus musculus)", 5.01],
  ["Cc1ccc(CNC(=O)C(CCN)NCCC=C(c2ccccc2)c2ccccc2)cc1 (stereo not given)", "GABA transporter 2 (Mus musculus)", 5.05],
  ["NCCC(C(=O)NCc1ccccc1Cl)N1CCC(C(c2ccccc2)c2ccccc2)CC1 (stereo not given)", "GABA transporter 2 (Mus musculus)", 5.23]
]}

====

- method description: Retardation factor of the compound using hexane/ethanol/TEA at ratio of 7:2:1 as solvent system by thin layer chromatography
- Assay type: physicochemical

{"columns": ["molecule", "Rf"],
 "data": [
  ["CN(CCCC(c1ccccc1)c1ccccc1)C(CCN)C(=O)NCc1ccc(F)cc1 (stereo not given)", 0.22],
  ["CN(CCCC(c1ccccc1)c1ccccc1)C(CCN)C(=O)NCc1ccccc1 (stereo not given)", 0.12],
  ["CN(CCCC(c1ccccc1)c1ccccc1)C(CCN)C(=O)NCc1ccc(Cl)cc1 (stereo not given)", 0.1],
  ["NCCC(NCCC=C(c1ccccc1)c1ccccc1)C(=O)NCc1ccccc1 (stereo not given)", 0.16],
  ["NCCC(NCCC=C(c1ccccc1)c1ccccc1)C(=O)NCc1ccc(Cl)cc1 (stereo not given)", 0.14],
  ["Cc1ccc(CNC(=O)C(CCN)N(C)CCCC(c2ccccc2)c2ccccc2)cc1 (stereo not given)", 0.17],
  ["NCCC(NCCC=C(c1ccccc1)c1ccccc1)C(=O)NCc1ccc(F)cc1 (stereo not given)", 0.15],
  ["CN(CCCC(c1ccccc1)c1ccccc1)C(CCN)C(=O)NCc1ccccc1Cl (stereo not given)", 0.15],
  ["Cc1ccc(CNC(=O)C(CCN)NCCC=C(c2ccccc2)c2ccccc2)cc1 (stereo not given)", 0.16],
  ["NCCC(NCCC=C(c1ccccc1)c1ccccc1)C(=O)NCc1ccccc1Cl (stereo not given)", 0.15]
]}

====

- method description: Retardation factor of the compound using 25%NH3/MeOH/DCM/PE at ratio of 45:225:600:90 as solvent system by thin layer chromatography
- Type: physicochemical

{"columns": ["compound", "Rf"],
 "data": [
  ["NCCC(C(=O)NCc1ccc(Cl)cc1)N1CCC(=C(c2ccccc2)c2ccccc2)CC1 (stereo not given)", 0.8],
  ["Cc1ccc(CNC(=O)C(CCN)N(C)CCC=C(c2ccccc2)c2ccccc2)cc1 (stereo not given)", 0.84],
  ["NCCC(C(=O)NCc1ccccc1Cl)N1CCC(=C(c2ccccc2)c2ccccc2)CC1 (stereo not given)", 0.78],
  ["NCCC(C(=O)NCc1ccccc1)N1CCN(C(c2ccccc2)c2ccccc2)CC1 (stereo not given)", 0.15],
  ["CN(CCC=C(c1ccccc1)c1ccccc1)C(CCN)C(=O)NCc1ccccc1Cl (stereo not given)", 0.76],
  ["NCCC(C(=O)NCc1ccccc1Cl)N1CCN(C(c2ccccc2)c2ccccc2)CC1 (stereo not given)", 0.18],
  ["NCCC(C(=O)NCc1ccc(F)cc1)N1CCC(C(c2ccccc2)c2ccccc2)CC1 (stereo not given)", 0.9],
  ["NCCC(C(=O)NCc1ccccc1)N1CCC(=C(c2ccccc2)c2ccccc2)CC1 (stereo not given)", 0.74],
  ["NCCC(C(=O)NCc1ccc(Cl)cc1)N1CCN(C(c2ccccc2)c2ccccc2)CC1 (stereo not given)", 0.14],
  ["Cc1ccc(CNC(=O)C(CCN)N2CCC(=C(c3ccccc3)c3ccccc3)CC2)cc1 (stereo not given)", 0.73],
  ["Cc1ccc(CNC(=O)C(CCN)N2CCC(C(c3ccccc3)c3ccccc3)CC2)cc1 (stereo not given)", 0.92],
  ["CN(CCC=C(c1ccccc1)c1ccccc1)C(CCN)C(=O)NCc1ccccc1 (stereo not given)", 0.74],
  ["NCCC(C(=O)NCc1ccc(F)cc1)N1CCN(C(c2ccccc2)c2ccccc2)CC1 (stereo not given)", 0.12],
  ["NCCC(C(=O)NCc1ccc(Cl)cc1)N1CCC(C(c2ccccc2)c2ccccc2)CC1 (stereo not given)", 0.77],
  ["CN(CCC=C(c1ccccc1)c1ccccc1)C(CCN)C(=O)NCc1ccc(F)cc1 (stereo not given)", 0.79],
  ["CN(CCC=C(c1ccccc1)c1ccccc1)C(CCN)C(=O)NCc1ccc(Cl)cc1 (stereo not given)", 0.73],
  ["Cc1ccc(CNC(=O)C(CCN)N2CCN(C(c3ccccc3)c3ccccc3)CC2)cc1 (stereo not given)", 0.18],
  ["NCCC(C(=O)NCc1ccccc1Cl)N1CCC(C(c2ccccc2)c2ccccc2)CC1 (stereo not given)", 0.79],
  ["NCCC(C(=O)NCc1ccc(F)cc1)N1CCC(=C(c2ccccc2)c2ccccc2)CC1 (stereo not given)", 0.77],
  ["NCCC(C(=O)NCc1ccccc1)N1CCC(C(c2ccccc2)c2ccccc2)CC1 (stereo not given)", 0.92]
]}
